method-notes: Viability qHTS for spleen associated tyrosine kinase inhibitor (SYKi) naive MV4-11 cells (AID 1963823); further: nearly all actives have a fitted effect of over 40% in size; further: potency means the concentration at half of the fitted maximal effect
test-conditions: MV4-11 AML viability, CellTiter-Glo luminescence, 72 h; series mostly up to 45 µM
Procedure: Department of Medicine, Hematology/Oncology University Hospital Frankfurt, Germany. Trials have shown promising clinical activity of the selective SYK inhibitor entospletinib in patients with high expressing HOXA9/MEIS1 acute leukemias. […] 7; Detection; Luminescence; ViewLux plate reader (PerkinElmer). […] 1. Quantitative high-throughput screening (qHTS) of small molecule compounds was conducted on naive SYKi MV4-11 cell line. […] 7. Luminescence was measured on a ViewLux plate reader (PerkinElmer).
Results filed as inconclusive are left out. Active and inactive are the calls of the source. The call rests on the fitted dose curve; in most records, active means well fitted cell-killing curve with a large enough effect; inconclusive means small, poorly fitted or top-dose-only effect, or effect the other way; inactive means no such curve, though single readings can be large or run the other way.
recorded-metric: Potency

Below: 8 compounds and their reported Potency.
Nc1ccc(C(=O)Oc2ccccc2)c(O)c1: inactive
CC(=O)OC1C[C@]2(C)C(O)CC(C)=C[C@H](OC(=O)c3ccc(O)cc3)C2[C@]1(O)C(C)C (stereo partly specified): inactive
CC(=O)N1c2ccc(-c3ccc(C(=O)O)cc3)cc2[C@H](Nc2ccc(Cl)cc2)C[C@@H]1C: 0.0525 µM (active)
C[C@@H]1Cc2c([nH]c3ccccc23)[C@@H](c2c(F)cc(/C=C/C(=O)O)cc2F)N1CC(C)(C)F: 23.5 µM (active)
COc1cc(/C=C/C(=O)O[C@H]2[C@H](O)[C@@H](CO)O[C@@]2(CO)O[C@H]2O[C@H](CO)[C@@H](O)[C@H](O)[C@H]2O)ccc1O: inactive
CCN(CC)CCOC(=O)C(c1ccccc1)C1CCCCC1 (stereo unspecified): inactive
C=C1/C(=C/C=C2\CCC[C@@]3(C)C2CCC3[C@H](C)/C=C/[C@@H](O)C2CC2)C[C@@H](O)C[C@@H]1O (stereo partly specified): inactive
C[C@]12C=CC(=O)C=C1CC[C@@H]1[C@@H]2C(=O)C[C@@]2(C)[C@H]1CC[C@]2(O)C(=O)CO: inactive

[Q] What value of Potency has been recorded for this entry: C[C@@H]1C[C@H]2OC(=O)[C@@]3(C)CCC[C@](C)(C23)[C@@]1(O)CCC1=CC(=O)OC1O (stereo partly specified)
[A] inactive

[Q] What value of Potency has been recorded for this entry: "Cc1c(Nc2ncccc2C(=O)O)cccc1C(F)(F)F"
[A] inactive

[Q] What value of Potency has been recorded for this entry: "O=C(NCCN1CCOCC1)c1cc2c(Oc3ccc(NC(=O)C4(C(=O)Nc5ccc(F)cc5)CC4)cc3)ccnc2[nH]1"
[A] 0.0259 µM (active)

[Q] What value of Potency has been recorded for this entry: "C[C@@]12C[C@]3(O)O[C@H](O1)[C@]1(COC(=O)c4ccccc4)[C@H]3C[C@@]12O[C@@H]1O[C@H](COC(=O)c2ccccc2)[C@@H](O)[C@H](O)[C@H]1O"
[A] inactive

[Q] What value of Potency has been recorded for this entry: "COc1cc(CCc2ccc(OCC=C(C)C)cc2)cc(OC)c1OC"
[A] 14.3 µM (active)
